Assay: Solubility of the compound
Type: physicochemical
Each record here notes measured solubility.
Dear colleague, please return just the value in µM, with no unit written.

Sample records with solubility:
1) CCNC(=O)Nc1cc(-c2nc(C(F)(F)F)cs2)c(-c2cncc(-c3noc(=O)[nH]3)c2)cn1 = 830
2) CCNC(=O)Nc1cc(-c2nc(C(F)(F)F)cs2)c(-c2cncc(-c3n[nH]c(=O)o3)c2)cn1 = 19

Consider now this further compound.
Lab note: measured solubility of `CCNC(=O)Nc1cc(-c2nc(C(F)(F)F)cs2)c(-c2cncc(C(=O)O)c2)cn1` was 800

* * *

Biological target: DNA gyrase subunit B (Staphylococcus aureus, UniProt P0A0K8)
Sequence (P0A0K8 whole entry): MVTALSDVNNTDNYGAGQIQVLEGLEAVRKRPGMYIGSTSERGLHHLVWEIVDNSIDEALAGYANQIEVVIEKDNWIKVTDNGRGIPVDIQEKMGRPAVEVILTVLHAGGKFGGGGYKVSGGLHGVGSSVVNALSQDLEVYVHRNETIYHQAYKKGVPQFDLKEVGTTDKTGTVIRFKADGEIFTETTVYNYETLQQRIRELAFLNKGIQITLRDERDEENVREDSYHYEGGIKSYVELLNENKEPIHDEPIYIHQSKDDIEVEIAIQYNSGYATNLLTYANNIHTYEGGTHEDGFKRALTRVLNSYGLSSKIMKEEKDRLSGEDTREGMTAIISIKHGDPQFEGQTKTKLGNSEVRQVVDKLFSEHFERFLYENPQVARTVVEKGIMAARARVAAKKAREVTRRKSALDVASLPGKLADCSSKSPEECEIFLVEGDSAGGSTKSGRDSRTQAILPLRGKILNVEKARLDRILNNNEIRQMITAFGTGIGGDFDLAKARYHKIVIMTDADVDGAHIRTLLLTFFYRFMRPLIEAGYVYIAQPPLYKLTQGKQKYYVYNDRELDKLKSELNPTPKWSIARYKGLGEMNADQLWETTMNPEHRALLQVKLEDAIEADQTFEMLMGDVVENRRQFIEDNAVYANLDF
Assay: Inhibition of ATPase activity in Staphylococcus aureus GyrB tetramer in presence of Escherichia coli GyrA by ammonium molybdate/malachite green-based absorbance assay
measuredParameter: log10(IC50) (log10 of the value in µM)
Response schema: value (number) is log10 of IC50 in units of µM.

Worked examples, 3 compounds total:
1. O=C(Nc1ccccn1)NC1CC1 = 3.00
2. CCNC(=O)Nc1cc(-c2cccnc2)c(-c2cncc(C(=O)O)c2)cn1 = -0.57
3. CCNC(=O)Nc1cc(-c2ccccc2)c(-c2cncc(C(=O)O)c2)cn1 = -1.22

The recorded log10(IC50) for entry `CCNC(=O)Nc1ccc(-c2ncc(C(=O)O)s2)cn1` equals -0.57

Recorded log10(IC50) (compound `C#CCNC(=O)Nc1ccccn1` ): 2.54

In plain terms, `CCNC(=O)Nc1cc(Br)c(-c2cncc(C(=O)O)c2)cn1` has a documented log10(IC50) of -0.52

* * *

Test system: Escherichia coli
Test: Antibacterial activity against tolC efflux pump deficient Escherichia coli W3110 assessed as growth inhibition after 18 to 24 hrs by CLSI broth microdilution method
Assay type: functional
Output Fulfilled for records whose MIC is lower than 20 µg/mL, Not fulfilled for records at or above 20 µg/mL.

Consider the worked cases shown below.
1) CCNC(=O)Nc1ccc(-c2cccc(C(=O)O)c2)cn1 = Not fulfilled
2) CCNC(=O)Nc1ccc(-c2cncc(C(=O)O)c2)cn1 = Not fulfilled
3) CCNC(=O)Nc1cc(-c2nc(C(F)(F)F)cs2)c(-c2ncc(C(=O)O)s2)cn1 = Not fulfilled
4) CCNC(=O)Nc1ccc(-c2nc3cccc(C(N)=O)c3s2)cn1 = Not fulfilled
5) CCNC(=O)Nc1cc(-c2noc(C)n2)c(-c2cncc(C(=O)O)c2)cn1 = Not fulfilled

Quick check: does `CCNC(=O)Nc1cc(-c2nc(C(F)(F)F)cs2)c(-c2nc3cccc(C(=O)O)c3s2)cn1` have MIC under 20 µg/mL?
Fulfilled

Confirm or reject: MIC of `CCNC(=O)Nc1ccc(Oc2cccc(C(=O)O)c2)cn1` lies strictly below 20 µg/mL
Not fulfilled

Would you kindly verify if MIC of `CCNC(=O)Nc1cc(-c2nc(C(C)(C)C)cs2)c(-c2cncc(C(=O)O)c2)cn1` is strictly less than 20 µg/mL?
Fulfilled

Identify whether the molecule `CCNC(=O)Nc1ccc(-c2cccnc2)cn1` records MIC below 20 µg/mL.
Not fulfilled

Does `CCNC(=O)Nc1cc(-c2nc(C(F)(F)F)cs2)c(-c2cncc(C(=O)O)c2)cn1` have MIC strictly under 20 µg/mL?
Fulfilled

Please determine if `CCNC(=O)Nc1ccc(-c2ccc(C(=O)O)cc2)cn1` is below 20 µg/mL in terms of MIC.
Fulfilled

* * *

Experiment: Unbound fraction in human at 10 uM after 16 hrs by LC-MS/MS analysis
Format: ADME
Settings: plasma
measuredParameter: fraction unbound at 16 h, 10 µM

As a guide, the following entries are already answered.
1) CCNC(=O)Nc1cc(-c2nc(C(F)(F)F)cs2)c(-c2cncc(-c3nnn[nH]3)c2)cn1 = 0.14
2) CCNC(=O)Nc1cc(-c2nc(C(F)(F)F)cs2)c(-c2cncc(C(=O)O)c2)cn1 = 0.082
3) CCNC(=O)Nc1cc(-c2nc(C(F)(F)F)cs2)c(-c2cncc(C(N)=O)c2)cn1 = 0.36

Lab note: `CCNC(=O)Nc1cc(-c2nc(C(F)(F)F)cs2)c(-c2cncc(/C(N)=N/O)c2)cn1` gave fraction unbound at 16 h, 10 µM of 0.35

The measured fraction unbound at 16 h, 10 µM associated with `CCNC(=O)Nc1cc(-c2nc(C(F)(F)F)cs2)c(-c2cncc(-c3nnc(C)o3)c2)cn1` reads 0.11

* * *

Molecular target: DNA gyrase subunit B (Staphylococcus aureus, UniProt P0A0K8)
Assay: Inhibition of ATPase activity in Staphylococcus aureus GyrB tetramer in presence of Escherichia coli GyrA by ammonium molybdate/malachite green-based absorbance assay
Collected IC50 values appear next to each entry.
// return numeric value only (unit: µM, not printed)

1. CCNC(=O)Nc1nc2ccccc2[nH]1 = 64
2. CCNC(=O)Nc1ccc(-c2nc3cccc(C(=O)O)c3s2)cn1 = 0.1
3. CCNC(=O)Nc1ncccn1 = 80
4. CCNC(=O)Nc1ccc(-c2nc(C(=O)O)cs2)cn1 = 3.6
5. CCNC(=O)Nc1cc(-c2nc(C(F)(F)F)cs2)c(-c2cncc(/C(N)=N/O)c2)cn1 = 0.073

Entry `CCNC(=O)Nc1cc(-c2nc(C(C)(C)C)cs2)c(-c2cncc(C(=O)O)c2)cn1` , IC50 reported as 0.03

Please fill in: IC50 reported for `CCNC(=O)Nc1cc(-c2nc(C(F)(F)F)cs2)c(-c2cncc(-c3nc(C)no3)c2)cn1` = 0.052

get_value(item= `CCNC(=O)Nc1cc(Cl)c(-c2cncc(C(=O)O)c2)cn1` , readout=IC50) returns 0.13

// `CCNC(=O)Nc1ccc(-c2cccnc2)cn1` : IC50 value = 2.7

// sample `CCNC(=O)Nc1ccc(-c2nc3cccc(C(N)=O)c3s2)cn1` , its IC50 was 0.039

The recorded IC50 for entry `CCNC(=O)Nc1cc(-c2ccncc2)c(-c2cncc(C(=O)O)c2)cn1` equals 0.32

IC50 reported for this compound `CCNC(=O)Nc1cc(-c2nc(C(F)(F)F)cs2)c(-c2cncc(-c3c(C)noc3C)c2)cn1` : 0.3

* * *

Reported pKa is given for each of the following molecules.
Experiment: Dissociation constant, pKa of the compound
Type: physicochemical
// keep it numeric: no unit symbol after the value

1) CCNC(=O)Nc1cc(-c2nc(C(F)(F)F)cs2)c(-c2cncc(C(=O)O)c2)cn1 = 3.7
2) CCNC(=O)Nc1cc(-c2nc(C(F)(F)F)cs2)c(-c2cncc(-c3nnn[nH]3)c2)cn1 = 3.7
3) CCNC(=O)Nc1cc(-c2nc(C(F)(F)F)cs2)c(-c2cncc(-c3noc(=O)[nH]3)c2)cn1 = 5.4

Attention now shifts to the item below.
Lab book: pKa of `CCNC(=O)Nc1cc(-c2nc(C(F)(F)F)cs2)c(-c2cncc(-c3n[nH]c(=O)o3)c2)cn1` noted as 6.6

* * *

Assay: Volume of distribution at steady state in rat plasma at 10 mg/kg, iv administered 15 mins of infusion measured for 0 to 24 hrs by LC-MS/MS analysis
Format: ADME, organism-based
Set-up: dose 10 mg/kg, route intravenous
Conditions: read-out: Vdss
measuredParameter: Vd (L/kg)
Give just the numeric value; L/kg need not be written.

Some compounds with recorded Vd:
1. CCNC(=O)Nc1cc(-c2nc(C(F)(F)F)cs2)c(-c2cncc(C(N)=O)c2)cn1 = 1.5
2. CCNC(=O)Nc1cc(-c2nc(C(F)(F)F)cs2)c(-c2cncc(-c3nnc(C)o3)c2)cn1 = 3.3
3. CCNC(=O)Nc1cc(-c2nc(C(F)(F)F)cs2)c(-c2cncc(C#N)c2)cn1 = 3.4
4. CCNC(=O)Nc1cc(-c2nc(C(F)(F)F)cs2)c(-c2cncc(-c3n[nH]c(=O)o3)c2)cn1 = 0.66

GET /value?item= `CCNC(=O)Nc1cc(-c2nc(C(F)(F)F)cs2)c(-c2cncc(-c3nc(C)no3)c2)cn1` &field=Vd returns 11

Value of Vd reported for the compound `CCNC(=O)Nc1cc(-c2nc(C(F)(F)F)cs2)c(-c2cncc(-c3noc(=O)[nH]3)c2)cn1` is 3.5

* * *

Molecular target: DNA gyrase subunit B (Staphylococcus aureus, UniProt P0A0K8)
Experiment: Inhibition of ATPase activity in Staphylococcus aureus GyrB tetramer in presence of Escherichia coli GyrA by ammonium molybdate/malachite green-based absorbance assay
Measured pIC50, listed per entry for reference.
When answering, recall that pIC50 equals minus log10 of the concentration in mol/L, and write that number alone.

1) CCN(CC)C(=O)Nc1ccccn1 = 4.42

Next, consider the following compound.
Reported pIC50 ( `CCNC(=O)Nc1ccc(Oc2cccc(C(=O)O)c2)cn1` ) = 5.00

* * *

Test system: Moraxella catarrhalis
Test: Antibacterial activity against wild type Moraxella catarrhalis ATCC 43617 assessed as growth inhibition after 18 to 24 hrs by CLSI broth microdilution method
Type: functional
measuredParameter: MIC

Worked cases, MIC given:
1. CCNC(=O)Nc1ccc(-c2cccnc2)cn1 = > 48 µg/mL
2. CCNC(=O)Nc1cc(-c2nc(C(F)(F)F)cs2)c(-c2cncc(-c3nnn[nH]3)c2)cn1 = > 64 µg/mL
3. CCNC(=O)Nc1cc(-c2nc(C(F)(F)F)cs2)c(-c2cncc(C(N)=O)c2)cn1 = 0.7 µg/mL
4. CCNC(=O)Nc1cc(-c2nc(C(F)(F)F)cs2)c(-c2cncc(C#N)c2)cn1 = 0.33 µg/mL
5. CCNC(=O)Nc1ccc(Oc2cccc(C(=O)O)c2)cn1 = > 64 µg/mL

Summary for this compound, `CCNC(=O)Nc1ccc(-c2ccc(C(=O)O)cc2)cn1` : MIC is 4 µg/mL

Notebook: `CCNC(=O)Nc1cc(-c2ccccc2)c(-c2cncc(C(=O)O)c2)cn1` , MIC read as > 64 µg/mL

MIC in this record for `CCNC(=O)Nc1ccc(-c2ncc(C(=O)O)s2)cn1` : > 64 µg/mL

Documented MIC of `CCNC(=O)Nc1cc(-c2cccnc2)c(-c2cncc(C(=O)O)c2)cn1` : > 64 µg/mL

Noted for `CCNC(=O)Nc1cc(-c2nc(C(F)(F)F)cs2)c(-c2cncc(-c3nnc(C)o3)c2)cn1` : its MIC reads 0.37 µg/mL

Source of measurements: ChEMBL document CHEMBL3232928
